- System: E. faecium E1679
- Test: MIC assay
- Assay type: cell-based, Enterococcus faecium
- Condition Info: E. faecium E1679, VanA
Measured MIC, listed per entry.

Compound Structure	MIC (µg/mL)
CCCCCCCCCNC(N)=Nc1ccc(CN[C@@]2(C)C[C@H](O[C@H]3[C@H](Oc4c5cc6cc4Oc4ccc(cc4Cl)[C@@H](O)[C@@H](NC(=O)[C@@H](CC(C)C)NC)C(=O)N[C@@H](CC(N)=O)C(=O)N[C@H]6C(=O)N[C@H]4C(=O)N[C@H](C(=O)N[C@H](C(=O)O)c6cc(O)cc(O)c6-c6cc4ccc6O)[C@H](O)c4ccc(c(Cl)c4)O5)O[C@H](CO)[C@@H](O)[C@@H]3O)O[C@@H](C)[C@H]2O)cc1	4
CCCCCCCNC(N)=Nc1ccc(CN[C@@]2(C)C[C@H](O[C@H]3[C@H](Oc4c5cc6cc4Oc4ccc(cc4Cl)[C@@H](O)[C@@H](NC(=O)[C@@H](CC(C)C)NC)C(=O)N[C@@H](CC(N)=O)C(=O)N[C@H]6C(=O)N[C@H]4C(=O)N[C@H](C(=O)N[C@H](C(=O)O)c6cc(O)cc(O)c6-c6cc4ccc6O)[C@H](O)c4ccc(c(Cl)c4)O5)O[C@H](CO)[C@@H](O)[C@@H]3O)O[C@@H](C)[C@H]2O)cc1	16
CCCCCCCCNC(N)=Nc1ccc(CN[C@@]2(C)C[C@H](O[C@H]3[C@H](Oc4c5cc6cc4Oc4ccc(cc4Cl)[C@@H](O)[C@@H](NC(=O)[C@@H](CC(C)C)NC)C(=O)N[C@@H](CC(N)=O)C(=O)N[C@H]6C(=O)N[C@H]4C(=O)N[C@H](C(=O)N[C@H](C(=O)O)c6cc(O)cc(O)c6-c6cc4ccc6O)[C@H](O)c4ccc(c(Cl)c4)O5)O[C@H](CO)[C@@H](O)[C@@H]3O)O[C@@H](C)[C@H]2O)cc1	8
